Molecular target: Casp6-K284A-LS-SS (Homo sapiens, UniProt P55212, K284A)
Construct: obtained by co-expression and purification of LS and SS subunits of WT, L200A or K284A Casp6 from E. coli; His (C)
Sequence (P55212 24-179 limits assumed): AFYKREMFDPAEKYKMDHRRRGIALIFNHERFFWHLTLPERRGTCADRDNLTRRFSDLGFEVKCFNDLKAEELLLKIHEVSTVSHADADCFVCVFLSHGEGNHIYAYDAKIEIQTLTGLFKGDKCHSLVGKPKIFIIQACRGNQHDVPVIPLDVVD
Sequence (P55212 194-293 K284A limits assumed): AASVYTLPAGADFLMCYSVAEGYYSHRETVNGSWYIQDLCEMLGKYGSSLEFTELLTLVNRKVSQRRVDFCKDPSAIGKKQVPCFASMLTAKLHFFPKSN
Assay: C13 dose-response and global-fit kinetics on Casp6-K284A-LS-SS
Settings: global fit to noncompetitive (mixed) model, 0–50 µM C13, mean ± SE
OUTCOME MEASURE: pKi
pKi here: minus log base 10 of the concentration, concentration in moles per litre.

Asked: Read off the recorded pKi for COC(=O)c1cc(CNC(=O)C2Cc3ccccc3O2)cc(NC(=O)c2ccco2)c1 (stereo not shown)
Given back: 4.93
